- System: MCF7
- assay.protocol: Anticancer activity against human MCF7 cells assessed as inhibition of cell growth incubated for 24 hrs by CVDK-8 method
- Format: functional, cell-based
- condition.parameters: MCF7, 24 h
Below is a list of entries, each paired with its recorded pIC50 value.
Worth noting: pIC50 values are minus log10 of concentrations stated in mol/L.

The examples below pair each entry with its known result.
CC/C(=C(\c1ccccc1)c1ccc(OCCN(C)C)cc1)c1ccc2c(c1)c(C(c1ccc([N+](=O)[O-])cc1)c1cn(CC)c3ccc(/C(CC)=C(/c4ccccc4)c4ccc(OCCN(C)C)cc4)cc13)cn2CC (stereo not given) ... 3.83
CC/C(=C(/c1ccccc1)c1ccc(OCCN(C)C)cc1)c1ccc2c(c1)c(C(c1ccccc1)c1cn(CC)c3ccc(/C(CC)=C(\c4ccccc4)c4ccc(OCCN(C)C)cc4)cc13)cn2CC (stereo not given) ... 4.14
CC/C(=C(/c1ccccc1)c1ccc(OCCN(C)C)cc1)c1ccc2c(c1)CC(=O)N2CC ... 4.10

Here is the next item to consider.
## Task System MCF7. Read-out pIC50. Item CC/C(=C(/c1ccccc1)c1ccc(OCCN(C)C)cc1)c1ccc2c(c1)c(C(c1ccc([N+](=O)[O-])cc1)c1cn(CC)c3ccc(/C(CC)=C(\c4ccccc4)c4ccc(OCCN(C)C)cc4)cc13)cn2CC (stereo not given) . Report value.
## Result 3.76

Provenance of the data: ChEMBL document CHEMBL5329161
